- Test target: Hap1 (UniProt P0CE41)
- Sequence (P0CE41 whole entry): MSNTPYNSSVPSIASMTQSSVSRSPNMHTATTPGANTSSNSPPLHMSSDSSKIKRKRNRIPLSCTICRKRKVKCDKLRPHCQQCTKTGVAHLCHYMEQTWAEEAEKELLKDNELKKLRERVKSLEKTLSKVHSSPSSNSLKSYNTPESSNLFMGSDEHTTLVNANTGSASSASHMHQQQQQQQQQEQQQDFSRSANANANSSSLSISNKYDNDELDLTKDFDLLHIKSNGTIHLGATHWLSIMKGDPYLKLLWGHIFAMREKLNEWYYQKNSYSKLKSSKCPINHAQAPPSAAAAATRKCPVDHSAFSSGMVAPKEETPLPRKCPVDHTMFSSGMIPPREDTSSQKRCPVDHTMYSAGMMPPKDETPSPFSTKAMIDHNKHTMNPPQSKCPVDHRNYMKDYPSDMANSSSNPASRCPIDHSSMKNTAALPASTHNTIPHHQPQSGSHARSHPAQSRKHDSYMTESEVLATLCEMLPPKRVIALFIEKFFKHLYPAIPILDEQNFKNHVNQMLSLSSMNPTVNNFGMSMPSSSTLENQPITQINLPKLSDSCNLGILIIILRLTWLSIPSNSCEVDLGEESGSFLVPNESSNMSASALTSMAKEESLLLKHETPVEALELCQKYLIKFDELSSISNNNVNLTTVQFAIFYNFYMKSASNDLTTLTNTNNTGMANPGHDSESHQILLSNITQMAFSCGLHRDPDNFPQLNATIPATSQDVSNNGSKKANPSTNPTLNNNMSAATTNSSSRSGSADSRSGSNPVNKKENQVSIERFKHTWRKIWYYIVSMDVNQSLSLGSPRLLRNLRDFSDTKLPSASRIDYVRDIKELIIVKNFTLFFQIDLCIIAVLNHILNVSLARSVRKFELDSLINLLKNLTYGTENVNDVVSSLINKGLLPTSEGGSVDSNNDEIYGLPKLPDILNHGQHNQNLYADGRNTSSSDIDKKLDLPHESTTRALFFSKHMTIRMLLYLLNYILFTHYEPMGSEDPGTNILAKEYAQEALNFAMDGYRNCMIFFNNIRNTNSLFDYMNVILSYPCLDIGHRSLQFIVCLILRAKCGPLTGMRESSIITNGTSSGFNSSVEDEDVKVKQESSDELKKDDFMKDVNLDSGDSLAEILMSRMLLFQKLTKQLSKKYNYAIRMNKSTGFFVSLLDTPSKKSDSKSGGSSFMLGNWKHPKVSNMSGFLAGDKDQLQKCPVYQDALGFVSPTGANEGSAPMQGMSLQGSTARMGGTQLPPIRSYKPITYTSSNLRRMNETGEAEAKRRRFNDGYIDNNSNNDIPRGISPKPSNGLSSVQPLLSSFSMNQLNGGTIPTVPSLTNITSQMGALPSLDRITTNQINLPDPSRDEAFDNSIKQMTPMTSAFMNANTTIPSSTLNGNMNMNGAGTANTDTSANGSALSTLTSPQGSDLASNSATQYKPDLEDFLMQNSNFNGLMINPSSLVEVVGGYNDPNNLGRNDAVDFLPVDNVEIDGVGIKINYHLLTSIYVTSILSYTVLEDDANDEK
- Assay notes: PBM E-score (8-mer binding enrichment) (E-score (-0.5 to 0.5)); higher = stronger / more preferred TF binding
- Condition: protein concentration: 200 nM; construct: GST-DNA-binding domain
Whole data set: some 33,000 sequences, median “E-score (-0.5 to 0.5)” near -0.053, cut for the highest 2% near 0.37. The full list was thinned out, with the highest values kept by preference.
Entries are sorted into classes by PBM E-score as follows: lower segment: < -0.02; middle segment: ≥ -0.02 and < 0.2; upper segment: ≥ 0.2

Record excerpt, results attached:
AAACCACG: middle segment
AAGGAAGT: middle segment
CCCGAAAA: upper segment
CATCGGAG: upper segment
AACTCGCG: middle segment
GCGTTGAC: lower segment

In the following, a different sequence is considered.
Input `GTCAGTCA` ; output its category
lower segment

* * *

Please go through the items and note down their PBM E-score.
- Test target: Hap1 (UniProt P0CE41)
- Assay notes: PBM E-score (8-mer binding enrichment) (E-score (-0.5 to 0.5)); higher = stronger / more preferred TF binding
- Condition: protein concentration: 200 nM; construct: GST-DNA-binding domain
The full ranking holds about 33,000 sequences; the median of “E-score (-0.5 to 0.5)” is about -0.053, and the highest 2% start at about 0.37. What follows is part of a selection rich in the highest values, with near analogues and random picks from the rest.
One number for each entry.

State recorded PBM E-score for all listed sequences.
1. ACGATTTC
2. ACCGAAAA

[0.0291, 0.26]

* * *

- Test target: Hap1 (UniProt P0CE41)
- Assay notes: PBM E-score (8-mer binding enrichment) (E-score (-0.5 to 0.5)); higher = stronger / more preferred TF binding
- Condition: protein concentration: 200 nM; construct: GST-DNA-binding domain
Whole data set: some 33,000 sequences, median “E-score (-0.5 to 0.5)” near -0.053, cut for the highest 2% near 0.37. This excerpt belongs to a sample that is enriched for the highest values.
Please go through the items and note down their PBM E-score.
Numbers only.

A selection of reference data follows.
CTGACTTC: -0.0182
CGTTGCAC: 0.065
AGCGATAC: 0.065
GCCATACC: 0.0518
AGGACTTC: -0.152
GACGATAC: 0.0839

State recorded PBM E-score for all listed sequences.
1. AAGTCCAG
2. AACGATAC
3. CCCAGGCG
4. AGCAATAT
5. AGTCCGGC
6. TCCGATAA
7. CACGATAA
8. AGTCCGCC

1: -0.056; 2: -0.2; 3: -0.125; 4: -0.105; 5: 0.389; 6: 0.45; 7: 0.087; 8: 0.292

State recorded PBM E-score for all listed sequences.
1. ACCGATAC
2. CGGACTTC
3. AGTCCCGG
4. AGTCCGCG
5. AGTGAGTC

[0.371, 0.405, 0.322, 0.297, -0.18]

* * *

- Test target: Hap1 (UniProt P0CE41)
- Assay notes: PBM E-score (8-mer binding enrichment) (E-score (-0.5 to 0.5)); higher = stronger / more preferred TF binding
- Condition: protein concentration: 200 nM; construct: GST-DNA-binding domain
The full ranking holds about 33,000 sequences; the median of “E-score (-0.5 to 0.5)” is about -0.053, and the highest 2% start at about 0.37. This is one part of a sample in which the highest values are shown more often than they occur.
Measured quantity: PBM E-score
Answers are plain numbers.

State recorded PBM E-score for all listed sequences.
1. GCCAAGTA
2. CAGGACCG
3. CGGCGGTA
4. ACCGGACG
5. ATTGTCCC
6. AATGTCCT
7. TGGATACA
8. CTAGAGGA

[-0.218, -0.00407, 0.428, 0.421, 0.0458, -0.144, -0.288, -0.241]

State recorded PBM E-score for all listed sequences.
1. CGGATGTA
2. ACCGGACT
3. TCGGACCA
4. CGGATACA
5. AACGGACT
6. CCGGACTA

0.427
0.408
0.381
0.385
0.337
0.404
